Hello, the source for this data is patent US20190271705A1, in case you need it.

# target.under.test: RSKL-pY423
# test.description: fluorescence polarization
pKd: −log10 of the molar value.
If the reported pKd equals or exceeds 6, assign true (1). If not, assign false (0).

>>> group("T8I S10A K15L (designed binder) MKIEEHHHHHHSSGRENLYFQGGAAQPAAPVDSIQAEEWYFGKLGRKDAERQLLSFGNPRGTFLIRESETIKGAYALSIRDWDDMKGDHVKHYLIRKLDNGGYYITTRAQFETLQQLVQHYSERAAGLSSRLVVPSHKGAAA")
"true (1)"
>>> group("ΔT8 S10A K15L (designed binder) MKIEEHHHHHHSSGRENLYFQGGAAQPAAPVDSIQAEEWYFGKLGRKDAERQLLSFGNPRGTFLIRESETTKGAYSLSIRDWDDMKGDHVKHYKIRKLDNGGYYITTRAQFETLQQLVQHYSERAAGLSSRLVVPSHKGAAA")
"false (0)"
>>> group("T8V K15L (designed binder) MKIEEHHHHHHSSGRENLYFQGGAAQPAAPVDSIQAEEWYFGKLGRKDAERQLLSFGNPRGTFLIRESETVKGAYSLSIRDWDDMKGDHVKHYLIRKLDNGGYYITTRAQFETLQQLVQHYSERAAGLSSRLVVPSHKGAAA")
"true (1)"
>>> group("S10A K15L (designed binder) MKIEEHHHHHHSSGRENLYFQGGAAQPAAPVDSIQAEEWYFGKLGRKDAERQLLSFGNPRGTFLIRESETTKGAYALSIRDWDDMKGDHVKHYLIRKLDNGGYYITTRAQFETLQQLVQHYSERAAGLSSRLVVPSHKGAAA")
"false (0)"
>>> group("none (wild-type) (other) MKIEEHHHHHHSSGRENLYFQGGAAQPAAPVDSIQAEEWYFGKLGRKDAERQLLSFGNPRGTFLIRESETTKGAYSLSIRDWDDMKGDHVKHYKIRKLDNGGYYITTRAQFETLQQLVQHYSERAAGLSSRLVVPSHKGAAA")
"false (0)"
